This section presents compounds with their documented TGI values.
System: SNB-19 CNS
Test: NCI tumour cell line growth inhibition, 48 h

Worked cases, answers included:
{"columns": ["compound", "TGI"],
 "data": [
  ["CC1OC(OC2C(O)COC(OC3C(C)OC(OC4C(OC(=O)[C@]56CCC(C)(C)C[C@@H]5C5=CCC7[C@@]8(C)C[C@H](O)[C@H](OC9OC(CO)C(O)C(O)C9O)[C@@](C)(CO)[C@@H]8CC[C@@]7(C)[C@]5(C)CC6)OCC(O)C4O)C(O)C3OC3OCC(O)(CO)C3O)C2O)C(O)C(O)C1O (some centres undefined)", "29 µM"],
  ["S=C(S)NCNC(=S)S.[Zn+2]", "> 100 µM"],
  ["O=C(CCc1n[nH]c(=S)o1)Nc1ccccc1C(F)(F)F", "> 100 µM"],
  ["CCSc1ncnc2c1ncn2C1OC(CO)C(O)C1O (centres undefined)", "> 100 µM"],
  ["CC(CO)(CO)N1C(=O)C2C3C=CC(C3)C2C1=O (centres undefined)", "> 100 µM"]
]}

// moving on: another record for TGI
Exam item: Query TGI for CN1C2CCC1CC(=CCOC(c1ccc(F)cc1)c1ccc(F)cc1)C2
Marked response: 37.8 µM
